# Tested system: Bile acid receptor (Homo sapiens) (UniProt Q96RI1)
# Sequence (Q96RI1 whole entry, looked up): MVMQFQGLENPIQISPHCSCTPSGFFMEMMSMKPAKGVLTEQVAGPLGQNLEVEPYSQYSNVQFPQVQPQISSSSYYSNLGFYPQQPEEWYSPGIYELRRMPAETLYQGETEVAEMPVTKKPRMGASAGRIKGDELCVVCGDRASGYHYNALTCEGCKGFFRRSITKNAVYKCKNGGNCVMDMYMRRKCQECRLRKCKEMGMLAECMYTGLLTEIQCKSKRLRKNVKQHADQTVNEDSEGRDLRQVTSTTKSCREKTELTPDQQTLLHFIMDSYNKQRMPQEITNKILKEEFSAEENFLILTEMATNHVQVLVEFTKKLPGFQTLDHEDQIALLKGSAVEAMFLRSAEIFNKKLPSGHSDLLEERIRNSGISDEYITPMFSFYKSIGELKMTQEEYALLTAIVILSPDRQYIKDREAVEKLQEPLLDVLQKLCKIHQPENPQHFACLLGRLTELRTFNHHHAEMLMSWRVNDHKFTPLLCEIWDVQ
# Protocol description: ATG_FXR_TRANS: Attagene TRANS-FACTORIAL HepG2 Assay for Farnesoid X Receptor (FXR) (AID 2282979);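 note: hits raise reporter mRNA above DMSO so AC50 marks FXR activation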
# Assay context: HepG2 Attagene TRANS FXR-GAL4 reporter transcription
Results filed as inconclusive are left out. Activity calls are given as the source filed them. Rule for the calls: active = hit-call score of the fitted dose curve at least 0.9, where 1 is the maximum; inconclusive = response in the unintended direction; inactive = score below 0.9.
Answer with one of the outcomes 1 (yes) = active, 0 (no) = inactive

Example entries and their recorded answers appear below.
Line notation | Tested system | Group
c1cc[c]([Hg][c]2ccccc2)cc1 | Bile acid receptor (Homo sapiens) (UniProt Q96RI1) | 0 (no)
ClCc1cccnc1 | Bile acid receptor (Homo sapiens) (UniProt Q96RI1) | 0 (no)
CCOP(=S)(OCC)SCCS(=O)(=O)CC | Bile acid receptor (Homo sapiens) (UniProt Q96RI1) | 0 (no)
CC(C)(OO)c1ccccc1 | Bile acid receptor (Homo sapiens) (UniProt Q96RI1) | 0 (no)

Consider the record given below.
**Query** Look up the recorded call for Oc1c(I)cc(I)cc1I in this test.
**Result** 1 (yes)
